Test system: Vero E6 cells

{"Compound": "Cl.Cl.O=C(O)COCCN1CCN(C(c2ccccc2)c2ccc(Cl)cc2)CC1 (stereo not shown) [Cetirizine dihydorcloride]", "CC50": "> 100 µM"}

###

Tested on: SARS-CoV-2
Procedure Text: microbe, parasite or virus in culture
Assay type: cell-based
Test Settings: read-out: IC50 (Mean +/- SD)
pIC50: −log10 of the molar value.

{"Compound": "CCN(CC)CCCC(C)Nc1ccnc2cc(Cl)ccc12 (stereo not shown)", "pIC50": 5.41}
